experimental_details: endothelial E-selectin expression blockers – imaging, HUVEC, immunofluorescence, MLSMR starter and 10KST1 sets, primary screen (AID 487);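 further: signal is fraction of cell area covered by stained E-selectin grains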
measurement_parameters: HUVEC TNFalpha-induced E-selectin immunofluorescence imaging, at 2 µM; hits give high values
Label false if inhibition falls below -30%; label true in every other case.

molecule	assigned_class
COCc1[nH]nc2c1C(c1cc(OC)c(O)c(OC)c1)C(C#N)=C(N)O2 (stereo not given)	true
CCOc1ccc(C(=O)Nc2ccc(N3CCN(C)CC3)cc2)cc1Br	true
CC1CCN(S(=O)(=O)c2ccc3[nH]cc(C(=O)NCCN4CCOCC4)c(=O)c3c2)CC1	false
CCOc1ccc(-c2cc(C(=O)N3CCN(c4ccccn4)CC3)c3ccccc3n2)cc1	true
CC(C)CC(OC(=O)c1cccs1)C(=O)NCc1ccco1 (stereo not given)	true

----------
subject_of_test: Voltage-gated potassium channel subunit beta-2 (Rattus norvegicus) (UniProt P62483)
Sequence (P62483 whole entry, looked up): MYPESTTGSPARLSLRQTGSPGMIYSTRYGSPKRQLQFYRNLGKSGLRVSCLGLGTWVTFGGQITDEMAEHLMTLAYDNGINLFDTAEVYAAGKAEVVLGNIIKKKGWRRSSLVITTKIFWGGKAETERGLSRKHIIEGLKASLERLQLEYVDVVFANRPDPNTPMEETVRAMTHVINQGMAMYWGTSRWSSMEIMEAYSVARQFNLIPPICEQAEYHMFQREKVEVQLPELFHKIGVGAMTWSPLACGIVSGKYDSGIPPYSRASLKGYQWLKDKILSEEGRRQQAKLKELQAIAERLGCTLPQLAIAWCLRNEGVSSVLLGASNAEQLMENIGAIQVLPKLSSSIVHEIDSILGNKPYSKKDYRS
experimental_details: enhancers of rat Kvbeta2 NADPH turnover – biochemical, NADPH fluorescence, primary screen (AID 623);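 further: fluorescence intensity change per second fitted from 20 to 320 s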
measurement_parameters: Recombinant KvBeta, NADPH fluorescence decrease slope, 10 min; at 10 µM; hits give low values
Calls of active or inactive are those of the source.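 Rule for the calls: active = NADPH fluorescence slope more negative than the mean of all samples by about 3 SD, 99.7% confidence; inactive = the rest.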

molecule	NADPH fluorescence slope
O=C(CSc1nnnn1C1CCCCC1)N1CCc2ccccc21	-4e-05 (inactive)
Cc1csc(NC(=O)C(Cc2ccccc2)n2cccc2)n1 (centres undefined)	-5.3e-06 (inactive)
CCN(CC(=O)Nc1ccc(S(N)(=O)=O)cc1)S(=O)(=O)c1cc(C)ccc1OC	-4.7e-05 (inactive)
COc1ccc(N2CCN(CCCNC(=O)C3CCCN(S(=O)(=O)c4cnc[nH]4)C3)CC2)cc1 (centres undefined)	-5.9e-06 (inactive)
CCOC(=O)c1cnc2c(OC)cccc2c1N1CCN(c2ccc(OC)cc2)CC1	-4.5e-05 (inactive)
COc1ccc(-n2c(Cc3cccn3C)nnc2SCC(N)=O)cc1	-3.3e-05 (inactive)
Cc1cc(NC(=O)CCC(=O)N(CC(=O)NC2CCCC2)Cc2ccc(F)cc2)no1	-3.6e-05 (inactive)
COc1ccc(C(=O)Nc2cccc(-c3nc4ncccc4o3)c2C)cc1OC	1.4e-05 (inactive)
CC(C)COc1ccc(C2NC(=O)NC2=O)cc1 (centres undefined)	-2.2e-05 (inactive)
Cc1c(C(=O)NC2CCCc3ccccc32)oc2ccc(S(=O)(=O)N3CCOCC3)cc12 (centres undefined)	-6.3e-05 (inactive)
O=C(OCC(=O)N1CCc2ccccc21)C1=COCCO1	-7.8e-06 (inactive)
Cc1ccc(C(=O)N2CCN(C(=O)c3ccc(C)c(C)c3)C(C)C2)cc1C (centres undefined)	-5.3e-05 (inactive)
CCC(C(=O)OCC(=O)Nc1c(C)n(C)n(-c2ccccc2)c1=O)c1ccccc1 (centres undefined)	5.3e-06 (inactive)
COCCn1c(SCC(=O)Nc2cccc(OC)c2)nnc1-c1ccccc1	-3.1e-05 (inactive)
N#CC1=C(N)SC(N)=C(C#N)C1c1ccc(C(F)(F)F)cc1	2.9e-05 (inactive)
Cc1sc2nc(CN3CCN(S(=O)(=O)c4cccc5nonc45)CC3)[nH]c(=O)c2c1C	-5.6e-05 (inactive)
Cc1ccc(S(=O)(=O)N2CCOCC(=O)NCCOCCNC(=O)COCC2)cc1	-2.4e-05 (inactive)
COc1ccc(-c2noc(-c3ccccc3C(=O)Nc3cccnc3)n2)cc1OC	-3.1e-05 (inactive)
O=C(NC1=NCCS1)c1nc(-c2ccccc2)n(-c2ccccc2)n1	-4.9e-05 (inactive)
CCOC(=O)c1ccc(NCc2nc3ccccc3[nH]2)cc1	2.8e-05 (inactive)
CCn1c(=O)c2cc(S(=O)(=O)NCc3ccccc3)ccc2n(CC)c1=O	1.7e-05 (inactive)
CCc1nnc(NC(=O)c2cc3c(s2)CCCCC3)s1	-0.000125 (inactive)
COc1ccc(NC(=O)CCc2ccccc2)cc1NC(=O)c1ccco1	-5e-05 (inactive)
CCOC(=O)c1cccc(NC(=O)CS(=O)(=O)Cc2nc(-c3cccc(OC)c3)oc2C)c1	-3.5e-05 (inactive)
CCOc1ccc(C2C(C#N)=C(N)Oc3cc(C)n(CCN(C)C)c(=O)c32)cc1OCC (centres undefined)	-4.4e-05 (inactive)
COc1ccc(-n2c(=O)c3c4c(sc3n3cnnc23)CC(C)CC4)cc1 (centres undefined)	-4.9e-05 (inactive)
CC(C)c1nccn1S(=O)(=O)c1cc(Cl)ccc1Cl	-4.2e-05 (inactive)
Cc1cc(C(=O)NCCCc2ccccc2)no1	-1.1e-05 (inactive)
CSc1nnc(-c2ccc(NC(=O)CCc3ccccc3)cc2)n1C	-3e-05 (inactive)
COc1ccc(C(CNC(=O)c2cc(C)oc2C)N2CCOCC2)cc1 (centres undefined)	-9.2e-06 (inactive)
CCOC(=O)N1CCC2(O)CCCCC2C1c1ccc(F)cc1 (centres undefined)	1.9e-05 (inactive)
Brc1ccc(-c2csc(/N=C/N3CCOCC3)n2)cc1	-8.8e-05 (inactive)
COc1ccc(CCN2CC(O)=C(c3nc4ccccc4c(=O)[nH]3)C2=N)cc1OC	-1e-06 (inactive)
COc1ccccc1NC(=O)c1oc2ccccc2c1NC(=O)c1cc(OC)c(OC)c(OC)c1	-9.5e-06 (inactive)
CN(CC(=O)Nc1ccc2c(c1)OCCO2)S(=O)(=O)c1ccc(Br)s1	-4.9e-05 (inactive)
COCCn1c(C23CC4CC(CC(C4)C2)C3)n[nH]c1=S	-2.3e-05 (inactive)
COC(=O)Cn1c(=O)c2c(nc3n2CC(C)CN3c2ccc(C)c(C)c2)n(C)c1=O (centres undefined)	-4.3e-05 (inactive)
Oc1ccccc1-c1cc(C(F)(F)C(F)F)[nH]n1	-2e-05 (inactive)
Cc1ccc(S(=O)(=O)C2(C(=O)Nc3nccs3)CC2)cc1	-2.1e-05 (inactive)
COc1ccccc1N1CCN(c2cc(=O)n(Cc3ccc(F)cc3)c(=O)[nH]2)CC1	-3.7e-05 (inactive)
O=C(CSCc1cnn(-c2ccccc2)c1-n1cccc1)NCC1CCCO1 (centres undefined)	-4.7e-05 (inactive)
CCc1ccccc1-n1c(SCC(=O)N2CCCC2)nnc1-c1ccccn1	5e-05 (inactive)
O=C(NCN1CCCCC1)c1cccnc1	-4.4e-05 (inactive)
CCN1CCN(Cc2nc3c(c(=O)n(C)c(=O)n3C)n2CC(=O)c2ccccc2)CC1	-3e-05 (inactive)
